- system: AQP1 (Rattus norvegicus, UniProt P29975)
- Sequence (P29975 whole entry): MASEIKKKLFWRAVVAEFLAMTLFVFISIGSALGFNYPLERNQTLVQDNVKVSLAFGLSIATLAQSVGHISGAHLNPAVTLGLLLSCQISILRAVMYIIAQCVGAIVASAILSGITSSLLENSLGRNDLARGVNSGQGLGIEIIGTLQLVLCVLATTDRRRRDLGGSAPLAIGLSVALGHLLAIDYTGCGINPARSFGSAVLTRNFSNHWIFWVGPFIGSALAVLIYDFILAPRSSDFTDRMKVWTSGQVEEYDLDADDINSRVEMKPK
- procedure summary: stopped-flow light scattering water permeability of AQP1-expressing yeast; Cys189Ala variant resistant; reversed by ACC/DTT
metric name: IC50 (µM)
Note: unit µM is implicit; provide only the numeric part.

Query block: What reported IC50 corresponds to CS(=O)(=O)SCc1ccccc1 on AQP1 (Rattus norvegicus, UniProt P29975)?
Result block: 111
